Where do the numbers come from? From the supplement of paper PMC10567573.

Experiment: protein stability index of a GFP-peptide fusion (GPS, HEK-293T) (PSI 1-6); higher = more stable;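 also: 24-mer peptide tiles fused after GFP, lentivirally expressed, FACS-sorted into six equal bins by GFP/DsRed ratio, decoded by Illumina sequencing, PSI is the read-weighted mean bin number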
Conditions: treatment: DMSO; c terminus: a fixed tail appended
MEASUREMENT TYPE: protein stability index
Form rule: numeric answer, no unit written next to it.

// solved cases for protein stability index follow
                       sequence_record         measurement_type  reported_measurement
0     SDEYKIRRERNNIAVRKSRDKAKM [CEBPB]  protein stability index                  4.75
1   QDNNCHFDAALVSFINFFTSVLAT [SLC6A17]  protein stability index                  2.91
2     LRFSGVNDTDFRVYLLGNPVVWWL [POMT2]  protein stability index                  2.85
3      DSDENSKPSVDTEGPALVEIDRSV [MIA2]  protein stability index                  5.16
4  LYRGLAPNFMKVIPAVSISYVVYE [SLC25A25]  protein stability index                  2.71
5     ACDELFSYLIEKVKRKKNVLRLCC [PRAME]  protein stability index                  2.99
6     RTHSVIKEETNHSEMAEDLCKIGS [IKZF1]  protein stability index                   4.9
7    QVSHDFLETRFKIQQLLEPQQYMA [FBXO34]  protein stability index                  3.85

In the following, a different sequence is considered.
Short answer for ILVLKTDSQDLVASFRVTTGTSNT [RBBP5] : protein stability index was 2.2
